The following binders are shown together with reported Receptor downregulation, (EC50) (pM) values.
- system.under.test: human CD33 on primary human dendritic cells (human, UniProt P20138 18-364)
- Sequence (P20138 18-364): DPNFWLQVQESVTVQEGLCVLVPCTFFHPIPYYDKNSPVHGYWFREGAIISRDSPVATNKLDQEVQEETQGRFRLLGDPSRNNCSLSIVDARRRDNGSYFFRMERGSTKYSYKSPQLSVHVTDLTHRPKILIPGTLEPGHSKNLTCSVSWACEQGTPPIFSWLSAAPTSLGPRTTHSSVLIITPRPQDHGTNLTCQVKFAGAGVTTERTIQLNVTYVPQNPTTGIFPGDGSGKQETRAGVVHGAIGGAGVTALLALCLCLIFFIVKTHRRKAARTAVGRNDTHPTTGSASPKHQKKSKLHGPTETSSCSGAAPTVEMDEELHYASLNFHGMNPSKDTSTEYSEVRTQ
- test.method.notes: cell-based or functional assay
Respond numerically; units are pM and should not be typed.

Consider the worked cases shown below.
anti-CD33 antibody 6C7H16 (antibody, V domains shown, VH/VL only) VH: EVQLVESGGGLVQPGGSLRLSCAGSGFTFSNYLMNWVRQAPGKGLEWVAEIRLKSNNYVTNYAASVKGRFTISRDDSKNSVYLQMNSLKTEDTGVYYCTRAGYYVPFAYWGQGTLVTVSS VL: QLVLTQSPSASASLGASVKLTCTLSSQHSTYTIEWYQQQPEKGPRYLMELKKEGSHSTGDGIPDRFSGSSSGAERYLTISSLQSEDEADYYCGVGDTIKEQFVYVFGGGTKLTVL ... 305
anti-CD33 antibody 6C7H25 (antibody, V domains shown, VH/VL only) VH: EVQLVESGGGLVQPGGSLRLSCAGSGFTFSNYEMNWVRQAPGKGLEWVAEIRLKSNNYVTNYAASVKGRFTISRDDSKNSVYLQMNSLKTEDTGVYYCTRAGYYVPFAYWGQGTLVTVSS VL: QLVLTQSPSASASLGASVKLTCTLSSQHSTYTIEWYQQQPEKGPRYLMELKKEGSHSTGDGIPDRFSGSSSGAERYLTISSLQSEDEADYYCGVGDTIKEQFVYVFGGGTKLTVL ... 27.6

Qu. # query: Receptor downregulation, (EC50) (pM) of entry anti-CD33 antibody 6C7H15 (antibody, V domains shown, VH/VL only) VH: EVQLVESGGGLVQPGGSLRLSCAGSGFTFSNYSMNWVRQAPGKGLEWVAEIRLKSNNYVTNYAASVKGRFTISRDDSKNSVYLQMNSLKTEDTGVYYCTRAGYYVPFAYWGQGTLVTVSS VL: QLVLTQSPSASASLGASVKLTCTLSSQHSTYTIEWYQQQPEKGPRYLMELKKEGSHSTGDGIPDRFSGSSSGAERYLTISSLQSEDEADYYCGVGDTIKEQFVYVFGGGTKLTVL
Ans. 252

Hello, the source for this data is patent US20250270319A1, in case you need it.
